target: recombinant soluble homotrimeric HA of A/swine/Ontario/01911-2/99 (H4N6) (Influenza A virus A/Swine/Ontario/01911-2/99 (H4N6)); experiment: HA microarray, BCC supernatant; conditions: remark: other sources report otherwise
recorded metric: Trimeric HA Binding RLU (RLU)
Numbers only here, please. The scale is RLU.

Solved cases below.
Any idea what its Trimeric HA Binding RLU is? The binder is TCN-536 (5095_N01) (antibody, V domains shown) VH: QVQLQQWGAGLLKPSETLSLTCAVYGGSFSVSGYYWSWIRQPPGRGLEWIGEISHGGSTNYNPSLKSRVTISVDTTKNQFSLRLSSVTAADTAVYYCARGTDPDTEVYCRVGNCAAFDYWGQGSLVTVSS VL: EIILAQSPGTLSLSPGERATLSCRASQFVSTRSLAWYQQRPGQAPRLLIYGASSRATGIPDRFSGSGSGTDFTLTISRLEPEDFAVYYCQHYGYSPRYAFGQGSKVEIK
79

Next record, please: TCN-563 (5237_B21) (antibody, V domains shown) VH: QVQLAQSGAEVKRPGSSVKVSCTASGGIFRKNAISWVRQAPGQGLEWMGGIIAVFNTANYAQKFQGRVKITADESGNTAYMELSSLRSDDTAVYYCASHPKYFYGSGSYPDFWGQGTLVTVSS VL: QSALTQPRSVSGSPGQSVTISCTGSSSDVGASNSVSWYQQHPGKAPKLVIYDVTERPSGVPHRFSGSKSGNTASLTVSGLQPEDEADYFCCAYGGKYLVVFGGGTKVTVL
4500

Next record, please: TCN-553 (5261_C18) (antibody, V domains shown) VH: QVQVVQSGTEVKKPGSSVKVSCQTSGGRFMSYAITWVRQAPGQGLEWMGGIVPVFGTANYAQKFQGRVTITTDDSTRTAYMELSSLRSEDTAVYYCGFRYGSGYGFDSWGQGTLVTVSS VL: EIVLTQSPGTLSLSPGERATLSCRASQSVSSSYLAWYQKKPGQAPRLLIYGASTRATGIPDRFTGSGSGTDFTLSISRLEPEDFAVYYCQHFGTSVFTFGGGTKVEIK
2580

Below: the item to evaluate.
Any idea what its Trimeric HA Binding RLU is? The binder is TCN-555 (5246_L16) (antibody, V domains shown) VH: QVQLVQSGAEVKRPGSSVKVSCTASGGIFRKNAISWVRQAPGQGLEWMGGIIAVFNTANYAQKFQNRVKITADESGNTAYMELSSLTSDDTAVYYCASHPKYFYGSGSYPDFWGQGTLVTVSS VL: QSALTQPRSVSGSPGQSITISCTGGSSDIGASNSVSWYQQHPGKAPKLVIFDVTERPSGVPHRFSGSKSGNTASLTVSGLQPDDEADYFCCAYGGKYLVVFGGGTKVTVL
1950
